For each entry below, report its EC50 [nM] (cAMP) value.
# Target under test: human corticotropin-releasing factor 2a (CRF2a receptor) (human), Q13324
# Sequence (Q13324 20-411): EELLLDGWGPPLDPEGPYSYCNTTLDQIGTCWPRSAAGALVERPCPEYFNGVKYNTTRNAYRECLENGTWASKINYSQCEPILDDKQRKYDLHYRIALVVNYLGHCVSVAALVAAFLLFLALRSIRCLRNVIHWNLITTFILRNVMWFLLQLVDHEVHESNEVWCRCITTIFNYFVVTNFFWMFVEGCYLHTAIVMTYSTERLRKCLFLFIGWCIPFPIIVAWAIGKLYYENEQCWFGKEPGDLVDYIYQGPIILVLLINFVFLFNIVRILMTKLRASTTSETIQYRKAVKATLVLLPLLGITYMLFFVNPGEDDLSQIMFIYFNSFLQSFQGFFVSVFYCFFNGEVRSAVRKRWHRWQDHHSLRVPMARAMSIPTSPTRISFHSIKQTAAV
# Protocol details: cell-based or functional assay
*1 amine or outer side, *2 acyl side, *3 side chain or, on linkers, in order; H or OH if unused. Primed or numbered codes have the meaning given here. Where no end group is shown, it is not given here. Side-chain parts run from the residue outwards. [ ]: non-standard residue; d: D form. The star is where a group is joined. Thp′ = 4-amino-tetrahydro-2H-pyran-4-yl-acetic acid, O=C(CC1(N[*:1])CCOCC1)[*:2]; C18 diacid = O=C(O)CCCCCCCCCCCCCCCCC(=O)*; C16 diacid = O=C(O)CCCCCCCCCCCCCCC(=O)*; γGlu = O=C(O)[C@H](CCC(=O)[*:2])N[*:1]; AEEA = NCCOCCOCC(=O)O; Aib = CC(C)(N)C(=O)O
I only need the number, in nM, no unit after it.

Task item: May I ask what EC50 [nM] (cAMP) has been recorded for Ac-VLSLD[dV]PIKLK([γGlu-C16 diacid])QILLKQERQKKQREQAEKNKQILEQV-NH2 [SEQ ID NO 3] ?
Reply: 0.16

Task item: May I ask what EC50 [nM] (cAMP) has been recorded for Ac-IVLSLD[dV]PIKLK([AEEA-AEEA-γGlu-C18 diacid])KILLEQEKQKKQREQAETN[Thp′]QILAQV-NH2 [SEQ ID NO 198] ?
Reply: 1.7

Task item: May I ask what EC50 [nM] (cAMP) has been recorded for IVLSLD[dV]PIKLK([γGlu-C16 diacid])QILLKQERQKKQREQAEKN[Aib]QILEQV-NH2 [SEQ ID NO 10] ?
Reply: 0.17

These data points were gathered from patent US20260001928A1.
